- TARGET_OF_ASSAY: T1, PUF4 RNA-binding domain (Saccharomyces cerevisiae, UniProt P25339 537-888)
- T1 sequence: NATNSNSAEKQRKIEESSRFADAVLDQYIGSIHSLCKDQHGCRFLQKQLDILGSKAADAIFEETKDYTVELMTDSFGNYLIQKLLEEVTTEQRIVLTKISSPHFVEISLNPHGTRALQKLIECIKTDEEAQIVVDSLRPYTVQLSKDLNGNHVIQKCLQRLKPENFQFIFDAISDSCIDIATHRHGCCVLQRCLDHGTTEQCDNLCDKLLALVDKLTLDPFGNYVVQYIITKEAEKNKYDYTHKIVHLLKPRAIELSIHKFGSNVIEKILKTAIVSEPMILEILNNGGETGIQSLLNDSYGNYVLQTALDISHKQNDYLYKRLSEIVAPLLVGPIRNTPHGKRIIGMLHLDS
- ASSAY_METHOD_TEXT: Mg; RNA-MaP; 20 mM Na-HEPES pH 7.4, 30 mM KOAc, 0.75 mM MgCl2, 0.1% Tween-20, 5% glycerol, 0.1 mg/mL BSA, 2 mM DTT; 25 C; 0.0125-409.6 nM protein
- MEASUREMENT_PARAMETERS: tags: N-His6-TEV cleaved; C-SNAP kept, Cy3B-labelled; label: tethered on chip by stalled RNA polymerase
OBSERVED_PROPERTY: Kd

-- ask Quick one: Kd of Ib_S2_P4E.1_K4.1_C4.1_H4.1_[G2C]_A4.1_F4.1_[T8C]_T4.1 (ssRNA) RNA: UUUGAUUAAUAUGAUAUCGUUCUUUCUUCUAUAUCAUUCUUUCUCGAUAUCAUAUUAAUCUUU ?
-- reply 848 nM

-- ask Quick one: Kd of Ib_S4_P5E.1_K5.1_C5.1_H5.1_A5.1_[T5C]_F5.1_[T9C]_T5.1 (ssRNA) RNA: UUUGACAACUGAUCGUUCUUUCUUGUACUAUCAUUCUUUCUCGAUCAGUUGUCUUU ?
-- reply 27.6 nM

-- ask Quick one: Kd of UCUCUUUGUACGGUGUCUCUU (ssRNA) [Ic_S1_P4E.1_K4.1_C4.1_H4.1_A4.1_[T5C]_[A6G]_[T7G]_F4.1_[A9G]_T4.1] ?
-- reply 503 nM

All values here come from paper PMC9352680.
